assay: Thermodynamic solubility of the compound in PBS at pH 7.4; assay type: physicochemical; conditions: read-out: Therm_solubility
quantity: solubility thermodynamic (µM)
Please state the figure in µM; there is no need to write the unit.

CCc1cccc(C(=O)Nc2cc(C)nn2-c2nc(CC)cc(=O)[nH]2)c1: 10.8
CCc1cc(=O)[nH]c(-n2nc(C)cc2NC(=O)c2ccc(C)c(C)c2)n1: 7.6

Give the measured solubility thermodynamic of "CCc1cc(=O)[nH]c(-n2nc(C)cc2NC(=O)c2cc(C)ccc2F)n1" .
33.6

Look up solubility thermodynamic: "CCc1cc(=O)[nH]c(-n2nc(C)cc2NC(=O)c2cccc(C)c2)n1"
19.5

----------
target: UniProtKB Q08828
Sequence (Q08828 whole entry): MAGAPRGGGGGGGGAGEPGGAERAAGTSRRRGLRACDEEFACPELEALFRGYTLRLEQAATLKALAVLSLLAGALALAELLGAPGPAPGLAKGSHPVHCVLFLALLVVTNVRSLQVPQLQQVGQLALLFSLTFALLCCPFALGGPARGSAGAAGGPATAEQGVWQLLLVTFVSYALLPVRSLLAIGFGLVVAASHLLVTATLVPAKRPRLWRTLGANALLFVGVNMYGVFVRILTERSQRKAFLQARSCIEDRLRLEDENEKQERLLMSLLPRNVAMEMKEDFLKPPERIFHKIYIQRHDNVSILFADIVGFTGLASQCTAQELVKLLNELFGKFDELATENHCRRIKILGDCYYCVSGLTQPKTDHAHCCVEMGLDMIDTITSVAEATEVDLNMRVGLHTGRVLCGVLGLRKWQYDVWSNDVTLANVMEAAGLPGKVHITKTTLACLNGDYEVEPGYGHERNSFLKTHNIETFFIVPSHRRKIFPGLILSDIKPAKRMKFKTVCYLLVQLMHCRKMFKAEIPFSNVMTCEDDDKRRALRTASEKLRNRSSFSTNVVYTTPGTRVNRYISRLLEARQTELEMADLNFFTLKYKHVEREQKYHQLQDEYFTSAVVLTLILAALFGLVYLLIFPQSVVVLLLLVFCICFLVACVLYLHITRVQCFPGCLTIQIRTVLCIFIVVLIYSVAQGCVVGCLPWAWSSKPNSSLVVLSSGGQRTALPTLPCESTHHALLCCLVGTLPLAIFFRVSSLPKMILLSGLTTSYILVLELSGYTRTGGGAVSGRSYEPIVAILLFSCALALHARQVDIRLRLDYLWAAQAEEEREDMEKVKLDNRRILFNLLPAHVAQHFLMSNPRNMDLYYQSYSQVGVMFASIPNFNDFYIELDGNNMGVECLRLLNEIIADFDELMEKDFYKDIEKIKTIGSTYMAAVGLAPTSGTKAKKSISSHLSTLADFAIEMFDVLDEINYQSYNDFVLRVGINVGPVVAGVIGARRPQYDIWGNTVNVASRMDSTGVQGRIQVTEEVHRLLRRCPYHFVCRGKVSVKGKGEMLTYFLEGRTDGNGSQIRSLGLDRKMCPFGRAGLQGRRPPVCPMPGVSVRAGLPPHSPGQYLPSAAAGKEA
quantity: pIC50
As a rule, pIC50 stands for the negative log10 of the concentration, concentration in M.

CCOc1cccc(C(=O)Nc2cc(C)nn2-c2nc(CC)cc(=O)[nH]2)c1: 6.05
CCc1cc(=O)[nH]c(-n2nc(C)cc2NC(=O)c2ccccc2F)n1: 5.85
CCc1cc(=O)[nH]c(-n2nc(C)cc2NC(=O)c2cccc(SC)c2)n1: 6.20
CCc1cc(=O)[nH]c(-n2nc(C)cc2NC(=O)c2ccc(F)cc2)n1: 6.10
CCc1cc(=O)[nH]c(-n2nc(C)cc2NC(=O)c2cccc(C(C)C)c2)n1: 6.44

What value of pIC50 has been recorded for this entry: "CCc1cc(=O)[nH]c(-n2nc(C)cc2NC(=O)c2ccc(C)cc2)n1"
6.17

----------
Below: a set of entries, each annotated with reported inhibition.
biological target: Adenylate cyclase type 8 (Homo sapiens); test: Inhibition of Ca2+/ CAM stimulated human AC8 activity expressed in AC3 and AC6-knockout HEK293 cells assessed as A23187 stimulated cAMP accumulation incubated for 30 mins followed by […] in presence of IBMX for 1 hr by HTRF assay relative to control; format: cell-based; set-up: concentration or dose not given beside the values; details: time 90.0 min
Sequence (P40145 whole entry): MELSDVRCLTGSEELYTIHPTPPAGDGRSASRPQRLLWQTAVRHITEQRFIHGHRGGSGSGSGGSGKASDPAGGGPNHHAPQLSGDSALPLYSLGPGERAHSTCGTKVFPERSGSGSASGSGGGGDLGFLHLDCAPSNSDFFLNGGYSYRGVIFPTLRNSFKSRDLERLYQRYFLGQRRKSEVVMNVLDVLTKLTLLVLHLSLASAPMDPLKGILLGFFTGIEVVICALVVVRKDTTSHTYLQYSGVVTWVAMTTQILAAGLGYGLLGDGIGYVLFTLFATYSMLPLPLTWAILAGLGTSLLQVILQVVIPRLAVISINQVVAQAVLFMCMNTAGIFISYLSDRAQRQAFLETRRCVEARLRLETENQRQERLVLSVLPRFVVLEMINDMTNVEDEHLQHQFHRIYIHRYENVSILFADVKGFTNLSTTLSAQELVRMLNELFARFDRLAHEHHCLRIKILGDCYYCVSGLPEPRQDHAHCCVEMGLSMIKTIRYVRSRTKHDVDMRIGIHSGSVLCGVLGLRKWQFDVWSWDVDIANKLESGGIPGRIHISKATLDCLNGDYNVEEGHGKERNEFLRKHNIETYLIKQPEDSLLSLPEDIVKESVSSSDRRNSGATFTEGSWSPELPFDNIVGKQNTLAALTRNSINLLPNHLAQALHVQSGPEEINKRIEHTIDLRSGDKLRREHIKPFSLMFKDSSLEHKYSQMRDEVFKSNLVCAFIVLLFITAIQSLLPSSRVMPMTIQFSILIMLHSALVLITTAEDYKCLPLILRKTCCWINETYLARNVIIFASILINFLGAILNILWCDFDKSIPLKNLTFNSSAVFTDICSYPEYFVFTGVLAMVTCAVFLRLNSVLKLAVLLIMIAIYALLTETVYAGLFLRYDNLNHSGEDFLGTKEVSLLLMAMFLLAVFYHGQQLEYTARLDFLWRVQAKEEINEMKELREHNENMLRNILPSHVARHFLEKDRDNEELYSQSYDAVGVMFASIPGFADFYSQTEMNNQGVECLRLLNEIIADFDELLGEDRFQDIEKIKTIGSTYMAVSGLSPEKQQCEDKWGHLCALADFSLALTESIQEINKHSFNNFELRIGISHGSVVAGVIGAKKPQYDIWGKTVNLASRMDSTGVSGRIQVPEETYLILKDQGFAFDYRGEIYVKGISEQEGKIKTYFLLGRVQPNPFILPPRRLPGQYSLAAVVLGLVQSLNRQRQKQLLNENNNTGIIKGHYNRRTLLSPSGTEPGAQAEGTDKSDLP
Value expressed in %; do not type the unit.

Tell me the measured inhibition of "CCc1cc(=O)[nH]c(-n2nc(C)cc2NC(=O)c2ccco2)n1" , please.
20

Dear colleague, I am looking for the recorded inhibition of the following molecule: "CCc1cc(=O)[nH]c(-n2nc(C)cc2NC(=O)c2ccc(C(C)(C)C)cc2)n1"
35

Give the measured inhibition of "CCc1cc(=O)[nH]c(-n2nc(C)cc2NC(=O)c2ccc(-c3ccccc3)cc2)n1" .
32

Given the molecule "CCc1cc(=O)[nH]c(-n2nc(C)cc2NC(=O)c2cc(C)cc(C)c2)n1" , what is its reported inhibition?
27

Report inhibition for "CCc1cc(=O)[nH]c(-n2nc(C)cc2NC(=O)c2cccc(SC)c2)n1" please.
52

----------
target: CYP2C9 (Homo sapiens); assay: Inhibition of CYP2C9 (unknown origin) at 10 uM relative to control; type: ADME
Sequence (P11712 whole entry): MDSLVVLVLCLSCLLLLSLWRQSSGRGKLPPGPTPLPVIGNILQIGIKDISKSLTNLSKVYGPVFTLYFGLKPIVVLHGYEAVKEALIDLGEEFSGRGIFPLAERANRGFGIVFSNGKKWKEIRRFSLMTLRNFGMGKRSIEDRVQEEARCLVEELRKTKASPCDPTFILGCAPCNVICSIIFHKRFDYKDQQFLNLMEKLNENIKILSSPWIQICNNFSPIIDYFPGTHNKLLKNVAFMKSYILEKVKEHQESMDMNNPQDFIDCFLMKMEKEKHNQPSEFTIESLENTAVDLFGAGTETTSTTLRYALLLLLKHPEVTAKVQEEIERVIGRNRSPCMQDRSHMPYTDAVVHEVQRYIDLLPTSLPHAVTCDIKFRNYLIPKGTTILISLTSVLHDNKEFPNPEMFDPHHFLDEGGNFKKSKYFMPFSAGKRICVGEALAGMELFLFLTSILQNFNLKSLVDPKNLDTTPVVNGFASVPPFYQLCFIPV
quantity: inhibition at 10 µM
Give the figure together with its unit, number first.

If you can, please state the reported inhibition at 10 µM value of "CCc1cc(=O)[nH]c(-n2nc(C)cc2NC(=O)c2cc(C)ccc2F)n1" .
-0.2%

----------
test: Apparent permeability in MDCK-II cells; format: ADME, cell-based, Canis lupus familiaris; conditions: dog
quantity: Papp (nm/s)
Response body: numeric value in nm/s, unit text excluded.

What measured Papp goes with "CCc1cc(=O)[nH]c(-n2nc(C)cc2NC(=O)c2cc(C)ccc2F)n1" ?
22.1
